Origin of values: the Human Domainome abundance scans (Beltran et al. 2025)

Each entry below carries its reported abundance fitness.
B1: GA-binding protein alpha chain, residues 172 to 250; numbered along this chain, Q06546 (parent)
chain: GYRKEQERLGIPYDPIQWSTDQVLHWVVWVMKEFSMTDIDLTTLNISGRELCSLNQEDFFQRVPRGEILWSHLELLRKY

Variants of: B1
experiment-description: abundance fitness (aPCA) (normalised: wild type 0, dead -1); higher = more abundant; growth selection in yeast, the domain comes from the species named
test-settings: Homo sapiens

See these solved cases before continuing.
GYRKEQERLGIPYDPIQWSTDQVNHWVVWVMKEFSMTDIDLTTLNISGRELCSLNQEDFFQRVPRGEILWSHLELLRKY : -0.075
GYRKEQERLGIPYDPIQWSTDQVLHWVVWVMKEFSMTDIDLTTLNIGGRELCSLNQEDFFQRVPRGEILWSHLELLRKY : -0.14
GYRKEQERLGIPYDPIQWSTDQVLHWVVWVMKEFSMTDIDLTTLNIRGRELCSLNQEDFFQRVPRGEILWSHLELLRKY : -0.277
GYRKEQERLGIPYDWIQWSTDQVLHWVVWVMKEFSMTDIDLTTLNISGRELCSLNQEDFFQRVPRGEILWSHLELLRKY : -1.09
GYRKEQERLGIPYDPIQWSTDQVLHWVVWVMKEFSMTDIDLTTLNISGRELCSLNQEDFFQRVPRGEILMSHLELLRKY : -0.557
GYRKEQERLGIPYDPIQWSTDQVLHWVVWVMKEFSMTDIQLTTLNISGRELCSLNQEDFFQRVPRGEILWSHLELLRKY : -0.268

I am curious: what abundance fitness value has been reported for GYRKEQERLGIPYDPIQWSTDQVLHWVVWVMKEFSMTDIDLTTLNWSGRELCSLNQEDFFQRVPRGEILWSHLELLRKY ?
-0.257

I am curious: what abundance fitness value has been reported for GYRKEQERLGIPYDPIQWSTDQVLHWVVWVMKESSMTDIDLTTLNISGRELCSLNQEDFFQRVPRGEILWSHLELLRKY ?
-0.063
